Source of measurements: paper PMC3775635

# Target of assay: GABAA receptor β2 subunit (α1β2γ2 GABAA receptor) (Rattus norvegicus)
# Construct: gene Gabrb2; recombinant α1β2γ2 receptor expressed in Xenopus oocytes; also concatenated α1-β2-α1/γ2-β2; with GABAA receptor α1 and γ2 subunits
# Sequence (P63138 26-474): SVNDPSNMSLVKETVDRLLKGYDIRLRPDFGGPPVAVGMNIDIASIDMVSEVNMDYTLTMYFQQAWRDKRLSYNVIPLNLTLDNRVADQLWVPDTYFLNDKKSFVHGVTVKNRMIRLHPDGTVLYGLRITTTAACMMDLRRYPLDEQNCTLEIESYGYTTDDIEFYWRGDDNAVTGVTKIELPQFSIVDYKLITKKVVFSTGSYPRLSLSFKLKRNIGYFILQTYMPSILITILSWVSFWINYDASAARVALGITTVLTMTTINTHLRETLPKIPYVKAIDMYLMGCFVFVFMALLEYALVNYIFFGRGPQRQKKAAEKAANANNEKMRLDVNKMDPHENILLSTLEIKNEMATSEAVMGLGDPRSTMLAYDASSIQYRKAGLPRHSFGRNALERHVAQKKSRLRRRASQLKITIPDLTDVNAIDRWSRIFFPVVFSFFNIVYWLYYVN
# Sequence (P62813 28-455 partner): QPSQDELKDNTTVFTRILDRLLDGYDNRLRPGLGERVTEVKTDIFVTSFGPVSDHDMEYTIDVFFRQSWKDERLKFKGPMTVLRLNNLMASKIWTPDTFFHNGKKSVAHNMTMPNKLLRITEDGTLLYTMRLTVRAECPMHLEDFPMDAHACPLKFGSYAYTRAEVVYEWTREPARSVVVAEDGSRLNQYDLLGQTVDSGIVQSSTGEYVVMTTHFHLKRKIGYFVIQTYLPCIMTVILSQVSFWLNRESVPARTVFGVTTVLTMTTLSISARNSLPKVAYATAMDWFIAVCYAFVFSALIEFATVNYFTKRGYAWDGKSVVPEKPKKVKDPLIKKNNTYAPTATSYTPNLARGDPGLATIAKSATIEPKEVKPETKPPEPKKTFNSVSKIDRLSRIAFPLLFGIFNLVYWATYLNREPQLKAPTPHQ
# Sequence (P18508 39-466 partner): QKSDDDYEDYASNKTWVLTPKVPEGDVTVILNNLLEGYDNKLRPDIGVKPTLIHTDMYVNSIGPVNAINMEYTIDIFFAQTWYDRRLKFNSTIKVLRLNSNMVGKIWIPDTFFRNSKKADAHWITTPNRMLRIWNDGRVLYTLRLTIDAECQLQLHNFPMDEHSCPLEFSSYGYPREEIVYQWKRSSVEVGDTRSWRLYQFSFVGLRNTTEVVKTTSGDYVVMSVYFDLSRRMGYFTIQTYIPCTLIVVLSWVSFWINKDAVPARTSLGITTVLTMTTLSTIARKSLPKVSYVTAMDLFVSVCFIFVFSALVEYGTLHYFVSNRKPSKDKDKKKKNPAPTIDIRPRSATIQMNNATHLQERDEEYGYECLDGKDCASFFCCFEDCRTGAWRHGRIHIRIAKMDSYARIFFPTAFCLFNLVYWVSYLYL
# Assay remarks: two-electrode voltage clamp in Xenopus oocytes, potentiation of GABA currents; beta1/beta2 concatemers and point mutants
# Type: cell-based
Property label: EC50

{"Molecule": "CCCCC/C=C\\C/C=C\\C/C=C\\C/C=C\\CCCC(=O)NCC(=O)O [NA-glycine]", "Target of assay": "GABAA receptor β2 subunit (α1β2γ2 GABAA receptor) (Rattus norvegicus)", "Property label": "EC50", "Endpoint value": "1 to 10 µM"}
